Recorded melting point values for a group of compounds are listed next.

Consider the following illustrative entries.
# compound, melting point
records = [
    ("CS(=O)(=O)c1ccc(C(=O)NCCN2CCC(Oc3ccc(Cl)c(Cl)c3)CC2)s1 [Example 27]", "142 to 143 °C"),
    ("Cc1cc(OC2CCN(CCNC(=O)c3ccc(-n4cccn4)nc3)CC2)ccc1Cl [Example 38]", "183 to 184 °C"),
    ("O=C(NCCN1CCC(Oc2ccc(Cl)c(Cl)c2)CC1)c1nnc(Nc2ccccc2Cl)o1 [Example 31]", "161 to 162 °C"),
    ("NS(=O)(=O)c1cc(C(=O)NCCN2CCC(Oc3ccc(F)c(F)c3)CC2)ccc1Cl [Example 40]", "80 to 81 °C"),
    ("Cc1c(Cl)ccc(OC2CCN(CCNC(=O)c3ccccc3S(C)(=O)=O)CC2)c1Cl [Example 36]", "71 to 72 °C"),
    ("Cc1cc(OC2CCN(CCNC(=O)c3ccc(S(C)(=O)=O)cc3)CC2)ccc1Cl [Example 37]", "123 to 124 °C"),
]

### Prompt Requested read-out: melting point. Entry: CS(=O)(=O)c1ccc(C(=O)NCCN2CCC(Oc3ccc(F)c(F)c3)CC2)c(Cl)c1 [Example 42]
### Response 108 to 109 °C

### Prompt Would you mind doing "CS(=O)(=O)c1cccc(C(=O)NCCCN2CCC(Oc3ccc(Cl)c(Cl)c3)CC2)c1.Cl" as well?
### Response 212 °C

### Prompt Would you mind doing Cc1c(Cl)ccc(OC2CCN(CCNC(=O)c3ccc(S(C)(=O)=O)cc3)CC2)c1Cl [Example 34] as well?
### Response 171 to 172 °C

---

Recorded melting point values for a group of molecules are listed next.

# compound_structure_string, metric_name, readout_value
rows = [
    ("O=C(NCCN1CCC(Oc2ccc(Cl)c(Cl)c2)CC1)c1cn2ccccc2n1", "melting point", "150 to 151 °C"),
    ("CS(=O)(=O)Cc1ccc(C(=O)NCCN2CCC(Oc3ccc(F)c(F)c3)CC2)cc1", "melting point", "115 to 116 °C"),
    ("O=C(NCCN1CCC(Oc2ccc(F)cc2Cl)CC1)c1ccc(-n2cccn2)nc1", "melting point", "109 to 110 °C"),
    ("N#Cc1ccccc1C(=O)NCCN1CCC(Oc2ccc(F)c(F)c2)CC1", "melting point", "146 to 147 °C"),
]

### Prompt Requested read-out: melting point. Entry: "CS(=O)(=O)Nc1cccc(C(=O)NCCN2CCC(Oc3ccc(Cl)c(Cl)c3)CC2)c1"
### Response 150 to 151 °C

### Prompt Would you mind doing "NS(=O)(=O)c1cccc(C(=O)NCCN2CCC(Oc3ccc(Cl)c(Cl)c3)CC2)c1" as well?
### Response 168 to 169 °C

### Prompt Would you mind doing "N#Cc1cccc(C(=O)NCCN2CCC(Oc3ccc(F)c(F)c3)CC2)c1" as well?
### Response 106 to 107 °C

### Prompt Would you mind doing "CS(=O)(=O)c1ccc(C(=O)NCCN2CCC(Oc3ccc(Cl)c(Cl)c3)CC2)cc1" as well?
### Response 100 to 101 °C

### Prompt Would you mind doing "O=C(NCCN1CCC(Oc2ccc(Cl)c(Cl)c2)CC1)c1ccc(-n2cccn2)nc1" as well?
### Response 154 to 155 °C

Cited source for all entries: patent US7304077B2
